Taken from ChEMBL document CHEMBL1201862.

// reported GI50 for each item listed
- Test system: UACC-257
- ASSAY COMMENT: NCI tumour cell line growth inhibition, 48 h
Activity calls are given as the source filed them. Cut-off read from the data, not from the text of the source: active = GI50 up to about 1.1 µM and inactive = higher.

Here's what some known entries look like.
1) COc1ccc(/C(Cl)=C(\CN(C)C)c2ccc(OC)c(OC)c2)cc1OC.[B]; > 100 µM (inactive)
2) CN(C)c1ncnc2c1ncn2CCn1cnc2c(N(C)C)ncnc21; > 100 µM (inactive)
3) CN(C)C1=NC2=S(SC(Nc3ccccc3)=N2)S1 (centres undefined); 7.8 µM (inactive)

Next:
-- ask Please report GI50 for the following molecule: COC1=CC2(C=CC1=O)CCNC1=C2C(=O)c2nc[nH]c2C1=O (centres undefined)
-- reply > 100 µM (inactive)

====

- System: MOLT-4
- ASSAY COMMENT: NCI tumour cell line growth inhibition, 48 h
Active and inactive are the calls of the source. No stated cut-off is given here; in the data, active = GI50 up to about 1.1 µM and inactive = higher.
MEASURED PARAMETER: GI50

Here's what some known entries look like.
1) CC(=O)N(O)[C@@H]1CC[C@H](n2cnc3c(N)ncnc32)C1; > 100 µM (inactive)
2) C=C1C(=O)OC2C1CCC(C)C1C=CC(=O)C12C (centres undefined); 2.46 µM (inactive)
3) O=c1[nH]n(Cc2ccccn2)c2ccc([N+](=O)[O-])cc12; > 100 µM (inactive)

Next:
-- ask Please report GI50 for the following molecule: `CCOc1ccccc1NC(=O)CCC(=O)NN`
-- reply > 100 µM (inactive)

====

// reported GI50 for each item listed
- Tested on: SN12C
- ASSAY COMMENT: NCI tumour cell line growth inhibition, 48 h
The source made the active and inactive calls. Rule as the data show it: active = GI50 up to about 1.1 µM and inactive = higher.

Here's what some known entries look like.
1. CCCCC(C(=O)N/N=C/c1ccc([N+](=O)[O-])o1)C(=O)N/N=C/c1ccc([N+](=O)[O-])o1; 3.66 µM (inactive)
2. COc1ccc2c(c1)CCc1c(C(C)=O)c3ccccc3n1C2; 49.5 µM (inactive)
3. COC(=O)C(Cc1nc2ccccc2nc1O)C(=O)C(=O)Nc1ccc(F)cc1 (stereo not drawn); 40.9 µM (inactive)
4. CN(CC(=O)N1CC(CCl)c2ccc([N+](=O)[O-])cc21)CC(=O)N1CC(CCl)c2ccc([N+](=O)[O-])cc21 (stereo not drawn); > 100 µM (inactive)
5. NC(=O)N/N=C1\CC2C3CC4C2C4C13 (stereo not drawn); > 100 µM (inactive)
6. O=C(/C=C/c1ccccc1O)C(c1ccccc1)c1ccccc1; > 100 µM (inactive)

-- ask Please report GI50 for the following compound: CN1N=C(c2ccncc2)OC1c1ccc(C(F)(F)F)cc1 (stereo not drawn)
-- reply > 100 µM (inactive)

-- ask Please report GI50 for the following compound: `C=CCSc1nn(CC=C)cc2ncnc1-2`
-- reply > 100 µM (inactive)

====

- System: SK-MEL-2
- ASSAY COMMENT: NCI tumour cell line growth inhibition, 48 h
Active and inactive are the calls of the source. No stated cut-off is given here; in the data, active = GI50 up to about 1.1 µM and inactive = higher.
// reported GI50 for each item listed

Here's what some known entries look like.
1) CCOC(=O)c1nc2ccccc2nc1Nc1cc(OC)c(OC)c(OC)c1; > 100 µM (inactive)
2) Brc1ccc2c3c1[C@@H]1O[C@@H]1c1cccc(c1-3)[C@@H]1O[C@H]21; 23.6 µM (inactive)
3) c1ccc2c(c1)C1=NCCN1c1ccccc1-2; 3.19 µM (inactive)
4) N#CCCN(CCCN(C(=O)Nc1ccccc1)c1ccccc1)C(=O)Nc1ccccc1; > 100 µM (inactive)
5) CC(C)(C)c1ccc2c(c1)S(=O)(=O)Nc1cccc(c1)NS(=O)(=O)c1cc(C(C)(C)C)ccc1OCCOCCO2; > 100 µM (inactive)
6) CCP(=O)(OC)C1=CCN(C(=O)OCC[Si](C)(C)C)CC1 (configuration not stated); > 100 µM (inactive)
7) CCCCCCCCCCCCCCCCOCC(COP(=O)(O)OCC1OC(n2cc(CC)c(=O)[nH]c2=O)CC1O)OC(=O)CCCCCCCCCCCCCCC (configuration not stated); > 100 µM (inactive)
8) CN1N=C(c2ccncc2)OC1c1ccc(C(F)(F)F)cc1 (configuration not stated); > 100 µM (inactive)
9) COc1cc2nc(Nc3cccc(Br)c3)nc(Nc3cccc(Br)c3)c2cc1OC; 18.4 µM (inactive)
10) C/C=C1\CC2C(=O)CCC2C2c3ccccc3OC12 (configuration not stated); > 100 µM (inactive)

-- ask Please report GI50 for the following molecule: CCC1(c2ccc(N)cc2)CCC(=O)NC1=O (configuration not stated) [AMINOGLUTETHIMIDE]
-- reply 3510 µM (inactive)

-- ask Please report GI50 for the following molecule: `C=CCCC(=O)CC(O)(C(F)(F)F)C(F)(F)F`
-- reply > 100 µM (inactive)

====

- Tested on: SK-MEL-2
- ASSAY COMMENT: NCI tumour cell line growth inhibition, 48 h
Calls of active or inactive are those of the source. No stated cut-off is given here; in the data, active = GI50 up to about 1.1 µM and inactive = higher.
Permitted responses: active, inactive

These recorded examples may help you get a feel for the data.
1) N#Cc1c(C#N)c(SSc2c(C#N)c(C#N)c(N)n2-c2ccc(F)cc2)n(-c2ccc(F)cc2)c1N; inactive
2) Cc1cc(C)c2c(n1)S(=O)(=O)N(CCCN1CCN(c3cccc(C(F)(F)F)c3)CC1)C(C(=O)c1ccc(Cl)cc1)=C2O; inactive
3) COC(COC(=O)N1CCN(C=O)CC1)C1=C(N2CC2)C(=O)C(C)=C(N2CC2)C1=O (stereo unspecified); active
4) COc1ccc(-n2/c(=N/C(=S)N(C)C)ss/c2=N\C(=S)N(C)C)cc1; inactive
5) O=C1CCC2(CC1)Cc1ccccc1C2O (stereo unspecified); inactive

-- ask Please state the recorded outcome for this molecule: `CCOC(=O)Cc1csc2[n+]1C(=O)/C(=C\c1cccc(Cl)c1Cl)S2`
-- reply inactive

-- ask Please state the recorded outcome for this molecule: `C[N+]1(CCCC[N+]2(C)CCCCCCC2)CCCCCCC1`
-- reply inactive

====

// reported GI50 for each item listed
- Tested on: 786-0
- ASSAY COMMENT: NCI tumour cell line growth inhibition, 48 h
Calls of active or inactive are those of the source. Rule as the data show it: active = GI50 up to about 1.1 µM and inactive = higher.

Here's what some known entries look like.
1) N=c1ccn2c(n1)OC1C(OP(=O)(O)O)C(CO)OC12 (centres undefined); 9.77 µM (inactive)
2) O=C(O)C(CS)Nc1c2ccccc2nc2ccccc12 (centres undefined); > 100 µM (inactive)
3) CCCCOC(=O)C(=O)C(CC(CC)C(=O)c1ccccc1)C(=O)C=C(C)C (centres undefined); > 100 µM (inactive)

Next:
-- ask Enter GI50 (test system 786-0) for `Nc1cc(Cl)cc2cc(Cl)cnc12`
-- reply > 100 µM (inactive)

====

- System: HT-29
- ASSAY COMMENT: NCI tumour cell line growth inhibition, 48 h
Calls of active or inactive are those of the source. Cut-off read from the data, not from the text of the source: active = GI50 up to about 1.1 µM and inactive = higher.
Permitted responses: yes = active, no = inactive

1) CC[C@H]1C=CCC[C@@]2(C[C@@H]3CC[C@@H]4[C@H](C(=O)OCCCCCCCCCCCCCCCC(=O)N(CCCNC(C)=O)C[C@H](CCNC(C)=O)OC(C)=O)[C@]5(CCC[C@@H](C)O5)NC(=[N+]34)N2)O1; yes

-- ask Please state the recorded outcome for this compound: O=C1C(Cl)C(c2cc3cc(Br)ccc3nc2Cl)N1c1c(Cl)cccc1Cl (stereo unspecified)
-- reply no

-- ask Please state the recorded outcome for this compound: `CC(C)=CC(=O)C/C(=N\NC(N)=S)C(=O)Nc1ccc(Cl)cc1`
-- reply no

-- ask Please state the recorded outcome for this compound: `COc1cc2c(cc1OC)-c1[nH]c3ccc([N+](=O)[O-])cc3c1CC(=O)N2`
-- reply no

====

// reported GI50 for each item listed
- Tested on: U-251
- ASSAY COMMENT: NCI tumour cell line growth inhibition, 48 h
Active and inactive are the calls of the source. No stated cut-off is given here; in the data, active = GI50 up to about 1.1 µM and inactive = higher.

Here's what some known entries look like.
1. O=C(CCC/C(CC(=O)c1ccc(Br)cc1)=N\O)Nc1ccccc1; > 100 µM (inactive)
2. Cc1ccc2c(c1C)CC1(Cc3c(ccc4c3CCC4)C1=O)C2=O (stereo unspecified); > 100 µM (inactive)
3. COc1ccc(C2=Nn3c(nc4sc(C)c(C)c4c3=O)SC2)cc1; > 100 µM (inactive)
4. CCOC(=O)c1nc2ccccc2nc1Nc1cc(OC)c(OC)c(OC)c1; > 100 µM (inactive)
5. C/C=C1\CC2C(=O)CCC2C2c3ccccc3OC12 (stereo unspecified); > 100 µM (inactive)

Next:
-- ask Please report GI50 for the following compound: Cc1ccc([S+]([O-])c2ccccc2[N+](=O)[O-])cc1 (stereo unspecified)
-- reply 48.8 µM (inactive)

====

- Test system: OVCAR-5
- ASSAY COMMENT: NCI tumour cell line growth inhibition, 48 h
Active and inactive are the calls of the source. No stated cut-off is given here; in the data, active = GI50 up to about 1.1 µM and inactive = higher.
// reported GI50 for each item listed

Here's what some known entries look like.
1. CCCCCCCCCOC(=S)NC; 18.3 µM (inactive)
2. Cc1ccc(-n2c(=O)c3nn4c(=O)n(-c5ccc(C)cc5)c(=O)c4nn3c2=O)cc1; > 100 µM (inactive)
3. COC(=O)CSC1CC(=O)c2c(Cl)sc(Cl)c21 (configuration not stated); > 100 µM (inactive)
4. COc1cc2c(cc1OC)-c1[nH]c3ccc([N+](=O)[O-])cc3c1CC(=O)N2; 3.78 µM (inactive)
5. CN(C)c1ccc(/C=C2\N=C(c3ccccc3)N(c3nc4ccc(Sc5ccccc5)cc4[nH]3)C2=O)cc1; 41.8 µM (inactive)

-- ask Please report GI50 for the following compound: O=C1CSC2=NC3=C(COC/C3=C\c3ccc(F)cc3)C(c3ccc(F)cc3)N12 (configuration not stated)
-- reply > 100 µM (inactive)

-- ask Please report GI50 for the following compound: `CS(=O)(=O)c1nc(-c2cc3c(c(S(C)(=O)=O)n2)CCC3)cc2c1CCCCC2`
-- reply > 100 µM (inactive)
